Value source: paper PMC9530242

Target: PRMT5:MEP50 (Homo sapiens)
Construct: full-length human PRMT5 (residues 1–637, NP_006100); FLAG; made in house; host or cells: Sf9 insect cells (Bac-to-Bac baculovirus)
Assay: MTase-Glo methyltransferase enzymatic inhibition assay (methylation of H4 peptide)
Assay type: biochemical
Settings: 100 nM PRMT5:MEP50, 10 µM SAM, 2 µM histone H4 peptide (1-21); n = 3; read-out: IC50, inhibition of PRMT5:MEP50 enzyme activity
pIC50: −log10 of the molar value.
EXPERIMENTAL READOUT: pIC50

Can you look up the measured pIC50 of Nc1ccc2ccc(CNC(=O)c3ccc4c(c3)c3c(n4CCO)CCCC3)cc2n1 for me?
~6.14

---

Target: PRMT5:MEP50 (Homo sapiens, UniProt O14744)
Construct: full-length human PRMT5 (residues 1–637, NP_006100); FLAG; made in house; host or cells: Sf9 insect cells (Bac-to-Bac baculovirus)
Sequence (O14744 whole entry, the tested form may be a part): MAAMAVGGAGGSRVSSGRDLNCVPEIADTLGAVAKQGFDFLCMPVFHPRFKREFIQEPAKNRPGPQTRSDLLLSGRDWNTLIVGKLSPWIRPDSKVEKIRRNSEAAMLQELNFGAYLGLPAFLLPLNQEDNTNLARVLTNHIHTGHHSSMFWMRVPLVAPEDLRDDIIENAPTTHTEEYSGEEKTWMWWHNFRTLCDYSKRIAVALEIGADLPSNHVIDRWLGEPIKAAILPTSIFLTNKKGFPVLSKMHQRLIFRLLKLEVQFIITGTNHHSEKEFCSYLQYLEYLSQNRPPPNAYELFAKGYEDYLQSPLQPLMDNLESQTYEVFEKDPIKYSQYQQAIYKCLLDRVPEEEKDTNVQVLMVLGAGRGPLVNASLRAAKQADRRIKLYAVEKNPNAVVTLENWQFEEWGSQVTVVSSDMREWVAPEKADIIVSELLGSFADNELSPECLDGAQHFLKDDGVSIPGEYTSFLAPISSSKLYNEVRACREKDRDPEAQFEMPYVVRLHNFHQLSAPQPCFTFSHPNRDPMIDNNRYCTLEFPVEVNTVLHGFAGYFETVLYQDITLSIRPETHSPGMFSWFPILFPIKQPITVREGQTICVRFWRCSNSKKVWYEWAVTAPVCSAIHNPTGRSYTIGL
Sequence (Q9BQA1 2-342 partner limits assumed): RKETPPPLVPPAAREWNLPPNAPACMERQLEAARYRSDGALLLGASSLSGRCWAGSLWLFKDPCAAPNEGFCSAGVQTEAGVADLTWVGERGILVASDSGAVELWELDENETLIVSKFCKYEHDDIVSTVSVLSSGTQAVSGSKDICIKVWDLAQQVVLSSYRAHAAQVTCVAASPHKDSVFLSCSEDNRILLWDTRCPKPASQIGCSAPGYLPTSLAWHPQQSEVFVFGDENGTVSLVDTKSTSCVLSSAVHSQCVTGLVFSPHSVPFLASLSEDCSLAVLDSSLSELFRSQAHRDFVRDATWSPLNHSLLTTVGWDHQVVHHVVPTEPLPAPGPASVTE
Assay: Surface plasmon resonance (SPR) binding study
Settings: without MTA (no cofactor)
EXPERIMENTAL READOUT: Kd

Can you look up the measured Kd of Nc1ccc2ccc(CNC(=O)c3ccc4c(c3)c3c(n4CCO)CCCC3)cc2n1 for me?
~13.6 µM

---

Target: PRMT5:MEP50 (Homo sapiens)
Construct: full-length human PRMT5 (residues 1–637, NP_006100); FLAG; made in house; host or cells: Sf9 insect cells (Bac-to-Bac baculovirus)
Test: MTase-Glo methyltransferase enzymatic inhibition assay (methylation of H4 peptide)
Assay type: biochemical
Conditions: 100 nM PRMT5:MEP50, 10 µM SAM, 2 µM histone H4 peptide (1-21); n = 3; read-out: IC50, inhibition of PRMT5 enzyme activity
EXPERIMENTAL READOUT: IC50 (nM)
Could you give me the number in nM? Just the number is fine.

Recall the recorded IC50 for Nc1ccc2ccc(CNC(=O)c3ccc4c(c3)c3c(n4CCO)CCCC3)cc2n1 with PRMT5:MEP50 (Homo sapiens) and state it.
730
